# HD50 (concentration necessary to lyse 50% of the cells) values compiled below
Test system: Human red blood cells (RBCs)
Assay: Hemolytic activity
Assay type: cell-based
Details: Tables 18-21
Square brackets hold non-standard residues; d marks the D form. Peptide text beside a SMILES is read from it. * marks the point of attachment. Fmoc = O=C(OCC1c2ccccc2-c2ccccc21)*; Orn = NCCC[C@H](N)C(=O)O; Aib = CC(C)(N)C(=O)O
Report only the number, with the unit µg/mL understood.

Solved cases (8 shown):
# molecule, recorded_value
data = [
    ("C[C@@H](NC(=O)[C@H](CCCCN)NC(=O)[C@H](Cc1c[nH]c2ccccc12)NC(=O)[C@H](CCCCN)NC(=O)OCC1c2ccccc2-c2ccccc21)C(N)=O [(KFmoc)WKa-NH2] (Fmoc-KWK[dA]-NH2)", 437),
    ("N=C(N)NCCC[C@@H](NC(=O)[C@H](CCCCN)NC(=O)[C@H](Cc1c[nH]c2ccccc12)NC(=O)[C@H](CCCCN)NC(=O)OCC1c2ccccc2-c2ccccc21)C(N)=O [(KFmoc)WKr-NH2] (Fmoc-KWK[dR]-NH2)", 324),
    ("NCCCC[C@H](NC(=O)OCC1c2ccccc2-c2ccccc21)C(=O)N[C@@H](Cc1c[nH]c2ccccc12)C(=O)N[C@@H](Cc1ccc(O)cc1)C(=O)N[C@H](CCCCN)C(N)=O [(KFmoc)WYk-NH2] (Fmoc-KWY[dK]-NH2)", 62),
    ("NCCCC[C@H](NC(=O)OCC1c2ccccc2-c2ccccc21)C(=O)N[C@@H](Cc1c[nH]c2ccccc12)C(=O)N[C@@H](Cc1ccc(O)cc1)C(=O)N[C@@H](CCCN)C(N)=O [(KFmoc)WY(Orn)-NH2] (Fmoc-KWY[Orn]-NH2)", 62),
    ("C[C@H](O)[C@@H](NC(=O)[C@H](Cc1ccc(O)cc1)NC(=O)[C@H](Cc1c[nH]c2ccccc12)NC(=O)[C@H](CCCCN)NC(=O)OCC1c2ccccc2-c2ccccc21)C(N)=O [(KFmoc)WYt-NH2] (Fmoc-KWY[dT]-NH2)", 37),
    ("N=C(N)NCCC[C@H](NC(=O)[C@H](CCCCN)NC(=O)[C@H](Cc1c[nH]c2ccccc12)NC(=O)[C@H](CCCCN)NC(=O)OCC1c2ccccc2-c2ccccc21)C(N)=O [(KFmoc)WKR-NH2] (Fmoc-KWKR-NH2)", 387),
    ("NCCCC[C@H](NC(=O)OCC1c2ccccc2-c2ccccc21)C(=O)N[C@@H](Cc1c[nH]c2ccccc12)C(=O)N[C@@H](CCCCN)C(=O)NCC(N)=O [(KFmoc)WKG-NH2] (Fmoc-KWKG-NH2)", 449),
    ("CC(C)C[C@H](NC(=O)[C@@H](Cc1ccccc1)NC(=O)[C@H](Cc1c[nH]c2ccccc12)NC(=O)[C@H](CCCCN)NC(=O)OCC1c2ccccc2-c2ccccc21)C(N)=O [(KFmoc)WfL-NH2] (Fmoc-KW[dF]L-NH2)", 294),
]

Continue with the molecule presented below.
Please report the measured HD50 (concentration necessary to lyse 50% of the cells) for CC[C@@H](C)[C@@H](NC(=O)[C@@H](CS)NC(=O)[C@H](CCCCN)NC(=O)OCC1c2ccccc2-c2ccccc21)C(=O)NC(C)(C)C(N)=O [(KFmoc)ci(aAIB)-NH2] (Fmoc-K[dC][dI][Aib]-NH2)
28

* * *

Test system: Human red blood cells (RBCs)
Assay: Hemolytic activity
Format: cell-based
Details: Tables 18-21
Square brackets hold non-standard residues; d marks the D form. Peptide text beside a SMILES is read from it. * marks the point of attachment. Fmoc = O=C(OCC1c2ccccc2-c2ccccc21)*; Thz = O=C(O)[C@@H]1CSCN1; GABA = NCCCC(=O)O
# HD50 (concentration necessary to lyse 50% of the cells) values compiled below
For clarity, give the value followed by its unit.

Solved cases (5 shown):
# compound, recorded_value
rows = [
    ("NCCCC[C@H](NC(=O)OCC1c2ccccc2-c2ccccc21)C(=O)N[C@@H](Cc1c[nH]c2ccccc12)C(=O)N[C@@H](Cc1ccc(O)cc1)C(=O)N[C@@H](Cc1c[nH]cn1)C(N)=O [(KFmoc)WYH-NH2] (Fmoc-KWYH-NH2)", "139 µg/mL"),
    ("NCCCC[C@H](NC(=O)OCC1c2ccccc2-c2ccccc21)C(=O)N[C@@H](Cc1c[nH]c2ccccc12)C(=O)N[C@@H](CCCCN)C(=O)N[C@@H](CC(N)=O)C(N)=O [(KFmoc)WKN-NH2] (Fmoc-KWKN-NH2)", "204 µg/mL"),
    ("NCCCC[C@H](NC(=O)OCC1c2ccccc2-c2ccccc21)C(=O)N[C@@H](Cc1c[nH]c2ccccc12)C(=O)N[C@@H](Cc1ccc(O)cc1)C(=O)N[C@H](Cc1c[nH]cn1)C(N)=O [(KFmoc)WYh-NH2] (Fmoc-KWY[dH]-NH2)", "73 µg/mL"),
    ("NCCCC[C@H](NC(=O)OCC1c2ccccc2-c2ccccc21)C(=O)N[C@@H](Cc1c[nH]c2ccccc12)C(=O)N[C@@H](CCCCN)C(=O)N[C@H](Cc1c[nH]c2ccccc12)C(N)=O [(KFmoc)WKw-NH2] (Fmoc-KWK[dW]-NH2)", "32 µg/mL"),
    ("CC(C)[C@H](NC(=O)[C@H](CCCCN)NC(=O)[C@H](Cc1c[nH]c2ccccc12)NC(=O)[C@H](CCCCN)NC(=O)OCC1c2ccccc2-c2ccccc21)C(N)=O [(KFmoc)WKV-NH2] (Fmoc-KWKV-NH2)", "137 µg/mL"),
]

Please report the measured HD50 (concentration necessary to lyse 50% of the cells) for NCCCC[C@H](NC(=O)[C@H](CCCCN)NC(=O)[C@H](Cc1c[nH]c2ccccc12)NC(=O)[C@H](CCCCN)NC(=O)OCC1c2ccccc2-c2ccccc21)C(N)=O [(KFmoc)WKK-NH2] (Fmoc-KWKK-NH2)
469 µg/mL

Please report the measured HD50 (concentration necessary to lyse 50% of the cells) for CC[C@@H](C)[C@@H](NC(=O)[C@@H](CS)NC(=O)[C@H](CCCCN)NC(=O)OCC1c2ccccc2-c2ccccc21)C(=O)N[C@@H](CS)C(N)=O [(KFmoc)ciC-NH2] (Fmoc-K[dC][dI]C-NH2)
400 µg/mL

Please report the measured HD50 (concentration necessary to lyse 50% of the cells) for NCCCC[C@H](NC(=O)OCC1c2ccccc2-c2ccccc21)C(=O)N[C@@H](Cc1c[nH]c2ccccc12)C(=O)N[C@@H](CCCCN)C(=O)N1CSC[C@H]1C(N)=O [(KFmoc)WK(Thiopro)-NH2] (Fmoc-KWK[Thz]-NH2)
108 µg/mL

Please report the measured HD50 (concentration necessary to lyse 50% of the cells) for CC[C@@H](C)[C@@H](NC(=O)[C@@H](CS)NC(=O)[C@H](CCCCN)NC(=O)OCC1c2ccccc2-c2ccccc21)C(=O)NCCCC(N)=O [(KFmoc)ci(gABA)-NH2] (Fmoc-K[dC][dI][GABA]-NH2)
54 µg/mL

Please report the measured HD50 (concentration necessary to lyse 50% of the cells) for N=C(N)NCCC[C@H](NC(=O)[C@H](Cc1ccc(O)cc1)NC(=O)[C@H](Cc1c[nH]c2ccccc12)NC(=O)[C@H](CCCCN)NC(=O)OCC1c2ccccc2-c2ccccc21)C(N)=O [(KFmoc)WYR-NH2] (Fmoc-KWYR-NH2)
45 µg/mL

* * *

Target: trypsin (from bovine pancreas) (Bos taurus)
Sequence (P00760 24-246): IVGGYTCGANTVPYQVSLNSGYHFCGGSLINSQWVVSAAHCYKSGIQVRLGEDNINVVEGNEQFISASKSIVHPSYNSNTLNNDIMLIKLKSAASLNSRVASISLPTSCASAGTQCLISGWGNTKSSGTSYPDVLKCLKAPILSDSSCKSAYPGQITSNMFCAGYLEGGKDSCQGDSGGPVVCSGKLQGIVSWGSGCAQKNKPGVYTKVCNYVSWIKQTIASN
Square brackets hold non-standard residues; d marks the D form. Peptide text beside a SMILES is read from it.
Labelling field: enter 1 if recorded IC50 is less than 100 µM. Enter 0 if it equals or exceeds that cut-off.

# compound, classification
data = [
    ("CC(=O)N[C@H](CCCNC(=N)N)C(=O)N[C@H](Cc1ccc(O)cc1)C(=O)N[C@H](CCCNC(=N)N)C(=O)N1CCC[C@@H]1C(=O)N[C@H](Cc1c[nH]c2ccccc12)C(=O)N[C@@H](C(N)=O)C(C)C [Ac-ryrpwv-NH2] (Ac-[dR][dY][dR][dP][dW][dV]-NH2)", 0),
]

Record CC(=O)N[C@H](CCCNC(=N)N)C(=O)N[C@H](Cc1ccc(O)cc1)C(=O)N[C@H](CCCNC(=N)N)C(=O)N1CCC[C@@H]1C(=O)N[C@H](Cc1c[nH]c2ccccc12)C(=O)N[C@H](Cc1c[nH]c2ccccc12)C(N)=O [Ac-ryrpww-NH2] (Ac-[dR][dY][dR][dP][dW][dW]-NH2) : is its IC50 strictly below 100 µM?
0

Record CC(=O)N[C@H](CCCNC(=N)N)C(=O)N[C@H](Cc1ccc(O)cc1)C(=O)N[C@H](CCCNC(=N)N)C(=O)N1CCC[C@@H]1C(=O)N[C@H](Cc1c[nH]c2ccccc12)C(=O)N1CCC[C@@H]1C(N)=O [Ac-ryrpwp-NH2] (Ac-[dR][dY][dR][dP][dW][dP]-NH2) : is its IC50 strictly below 100 µM?
1

Record CC(=O)N[C@H](CCCNC(=N)N)C(=O)N[C@H](Cc1ccc(O)cc1)C(=O)N[C@H](CCCNC(=N)N)C(=O)N1CCC[C@@H]1C(=O)N[C@H](Cc1c[nH]c2ccccc12)C(=O)N[C@H](CS)C(N)=O [Ac-ryrpwc-NH2] (Ac-[dR][dY][dR][dP][dW][dC]-NH2) : is its IC50 strictly below 100 µM?
0

Record CC(=O)N[C@H](CCCNC(=N)N)C(=O)N[C@H](Cc1ccc(O)cc1)C(=O)N[C@H](CCCNC(=N)N)C(=O)N1CCC[C@@H]1C(=O)N[C@H](Cc1c[nH]c2ccccc12)C(=O)N[C@@H](C(N)=O)[C@H](C)O [Ac-ryrpwt-NH2] (Ac-[dR][dY][dR][dP][dW][dT]-NH2) : is its IC50 strictly below 100 µM?
0
